Exercise: state measured pIC50 for each of the molecules provided.
- Tested on: GSC231
- PROTOCOL_DETAILS: GSC lines: sensitivity in vitro (IC50)
- Format: cell-based
- DETAILS: GSC231 line in vitro
pIC50: −log10 of the molar value.

O=C(NCC(O)CO)c1ccncc1Nc1ccc(I)cc1F (centres unmarked) [pimasertib, reference compound]: > 5.70

Proceeding to the next molecule to report its pIC50.
# input Return pIC50 (reported value) for this molecule: NC(=O)c1cccc2c(N[C@H](CN3CCC3)c3ccc(Cl)c(C(F)(F)F)c3)ncnc12 [M2698]
# output > 5.70

* * *

- Test system: GSC17
- PROTOCOL_DETAILS: GSC lines: sensitivity in vitro (IC50)
- Format: cell-based
- DETAILS: GSC17 line in vitro
Please respond with reported IC50 for every item in the list.

Please report IC50 for every entry that follows.
1. O=C(NCC(O)CO)c1ccncc1Nc1ccc(I)cc1F (centres unmarked) [pimasertib, reference compound]
2. NC(=O)c1cccc2c(N[C@H](CN3CCC3)c3ccc(Cl)c(C(F)(F)F)c3)ncnc12 [M2698]

# output
< 2000 nM
< 2000 nM
